Target: T1, DR3-8i (human)
T1 construct: also called purified monomeric DR3-8i antigen protein
T1 chain: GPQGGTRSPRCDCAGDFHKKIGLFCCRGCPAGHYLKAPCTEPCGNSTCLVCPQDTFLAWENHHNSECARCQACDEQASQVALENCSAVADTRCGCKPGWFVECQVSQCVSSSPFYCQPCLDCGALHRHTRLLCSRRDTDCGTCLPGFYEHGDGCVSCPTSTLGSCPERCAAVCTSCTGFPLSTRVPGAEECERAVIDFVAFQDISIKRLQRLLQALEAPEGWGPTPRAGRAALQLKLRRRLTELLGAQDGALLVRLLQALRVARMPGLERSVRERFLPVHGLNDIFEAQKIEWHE
Assay: BLI, IgG captured on protein A, DR3-8i in solution; Average
Please go through the items and note down their Kd.
Write the answer as a number in nM, unit excluded.

INPUT: What Kd value was documented for this binder, VHg10/VLg5 (antibody, human IgG1, V domains shown, human IgG1) VH: EVQLVESGGGLVQPGGSLRLSCAASGFTFSSYAMSWVRQAPGKGLEWVSTISDGDSYSYFPDSVKDRFTISRDNSKNTLYLQMNSLRAEDTAVYYCARDRIYGSVQYYAMDYWGQGTLVTVSS VL: EIVLTQSPGTLSLSPGERGTLSCRASESVEFSGTSLMQWYQQKPGQAPRLLIYAASNVESGIPDRFSGSGSETDFTLTISRLEPEDLAVYYCQQSRKLPYTFGQGTRLEIK ?
OUTPUT: 0.246

INPUT: What Kd value was documented for this binder, VHg10/VLg12 (antibody, human IgG1, V domains shown, human IgG1) VH: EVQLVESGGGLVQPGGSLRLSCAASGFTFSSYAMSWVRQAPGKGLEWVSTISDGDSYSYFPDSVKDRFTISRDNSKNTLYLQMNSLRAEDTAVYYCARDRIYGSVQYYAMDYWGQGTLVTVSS VL: EIVLTQSPATLSLSPGERATLSCRASESVEFSGTSLMQWYQQKPGQAPRLLIYAASNVESGIPARFSGSGSGTDFTLTISSLEPEDFAVYYCQQSRKLPYTFGQGTKLEIK ?
OUTPUT: 0.181

INPUT: What Kd value was documented for this binder, VHg1/VLg12 (antibody, human IgG1, V domains shown, human IgG1) VH: QVQLVQSGGGLVQPGGSLRLSCAASGFTFSSYAMSWVRQAPGKGLEWVSTISDGDSYSYFPDSVKDRFTISRDNSKNTLYLQMNSLRAEDTSVYYCARDRIYGSVQYYAMDYWGQGTLVTVSS VL: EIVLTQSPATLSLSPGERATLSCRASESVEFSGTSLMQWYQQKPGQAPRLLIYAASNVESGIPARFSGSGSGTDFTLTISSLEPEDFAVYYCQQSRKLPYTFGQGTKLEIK ?
OUTPUT: 0.0228

Measured values drawn from patent WO2025083273A1 for this set.
